Source listed as ChEMBL document CHEMBL1158664.

# experimental protocol: Induction of strand scission activity in DNA assessed as relaxation of supercoiled DNA at 25 ug/ml
# Design: scale not given: the % may be the effect or the level left
readout type: Activity

compound="COc1cc2c(c(OC)c1OC)C(=O)CC(c1ccc(O)c(O)c1)O2 (racemic)" readout_type=Activity result=76%
compound=COc1cc(O)c(C(=O)/C=C/c2ccc(O)c(O)c2)c(OC)c1OC readout_type=Activity result=47%
compound=COc1ccc([C@@H]2CC(=O)c3c(cc(OC)c(O)c3OC)O2)cc1 readout_type=Activity result=88%

---

# experimental protocol: Induction of strand scission activity in DNA assessed as ratio of 25 uM drug-induced to bleomycin-induced relaxation of supercoiled DNA
Listed next: entries and their corresponding Activity.
readout type: Activity

compound="COc1cc2c(c(OC)c1OC)C(=O)CC(c1ccc(O)c(O)c1)O2 (racemic)" readout_type=Activity result=1
compound=COc1cc(O)c(C(=O)/C=C/c2ccc(O)c(O)c2)c(OC)c1OC readout_type=Activity result=0.6
compound=COc1ccc([C@@H]2CC(=O)c3c(cc(OC)c(O)c3OC)O2)cc1 readout_type=Activity result=1.1
